# Method notes: chemical genetic growth profiling, strain panel (AID 1159580);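 further: tested at 20 µM; growth read once vehicle control cultures reached saturation at 30 °C; 1 = growth at the plate median or of vehicle wells; lower values mean less growth of the strain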
# Test conditions: S. cerevisiae deletion strains, growth OD, locus YHR129C, strain ARP1
Screen size: about 5,500 compounds; about 2,000 (36%) were called active. About 18% were inconclusive and are not listed. No stated cut-off is given here; in the data, active means normalized growth mostly below about 0.91 (no sharp cut-off); inconclusive means no clear call, values can overlap the other calls; inactive means mostly above about 0.92. Some of the results follow. Where a SMILES comes first, the peptide text is derived from it. [ ]: non-standard residue; d: D form. Orn = NCCC[CH](N)C(=O)O
Form entry, call: pick from YES = active, NO = inactive

Hi team, can someone confirm the assay call for "O=c1oc2c(O)c(O)cc3c(=O)oc4c(O)c(O)cc1c4c23" ?
YES

Same question, COc1cc2c(cc1OC)[C@@H]1C(=O)c3ccc4c(c3O[C@@H]1CO2)CC(C(C)C)O4 (some centres not stated) this time
NO

Same question, CC(C)CC1NC(=O)C(CCCN)NC(=O)C(C(C)C)NC(=O)C2CCCN2C(=O)C(Cc2ccccc2)NC(=O)C(CC(C)C)NC(=O)C(CCCN)NC(=O)C(C(C)C)NC(=O)C2CCCN2C(=O)C(Cc2ccccc2)NC1=O (configuration not stated) (cyclo(FPV[Orn]LFPV[Orn]L); configuration not given here) this time
NO

Same question, NC1C[C@H]1c1ccccc1 (some centres not stated) this time
NO

Same question, "NC(=O)NO" this time
NO

Same question, COc1cc2c(cc1OC)-c1c(oc3c4c(ccc3c1=O)OC(C(C)C)C4)CO2 (configuration not stated) this time
NO

Same question, COP(=O)(OC)OC(Br)C(Cl)(Cl)Br (configuration not stated) this time
NO

====

# Method notes: chemical genetic growth profiling, strain panel (AID 1159580)
# Test conditions: S. cerevisiae deletion strains, growth OD, locus YHR094C, strain hxt1, active compounds read low
The whole screen tested about 5,500 compounds, of which about 2,000 (36%) were called active. Roughly 18% stayed inconclusive and do not appear here. Some of the results follow.
Measure name: normalized growth
// no unit, no text: just the number

Quick check: normalized growth of CC(=O)OCC(=O)[C@@]1(O)CCC2C3CCC4=CC(=O)CC[C@]4(C)C3[C@@H](O)C[C@@]21C (stereo partly specified) ?
0.995

Same question, COC(=O)C[C@H]1C(C)(C)[C@@H](O)[C@@H]2CC3=C4C=C(OC)O[C@@H](c5ccoc5)[C@]4(C)CCC3[C@@]1(C)C2=O (stereo partly specified) this time
0.987

Same question, CC(N)C(O)c1ccc(O)c(O)c1 (stereo unspecified) this time
0.988

Same question, "CCOC([O-])=Nc1c[n+](N2CCOCC2)no1" this time
0.998

Same question, NC1C[C@H]1c1ccccc1 (stereo partly specified) this time
0.989

Same question, "Cc1c(NC(=O)c2cccnc2)c(=O)n(-c2ccccc2)n1C" this time
0.998

Same question, "CCNc1nc(Cl)nc(NCC)n1" this time
1

Same question, "O=C(O)c1cc(=O)c2cccc(O)c2[nH]1" this time
0.964

Same question, C#CC1(O)CCC2C3CCC4=CC(=O)CCC4(C)C3CCC21C (stereo unspecified) this time
0.968

Same question, OC(c1cc(C(F)(F)F)nc2c(C(F)(F)F)cccc12)C1CCCCN1 (stereo unspecified) this time
0.988

Same question, "CCC1(CC)C(=O)C=CNC1=O" this time
1.02

====

# Method notes: chemical genetic growth profiling, strain panel (AID 1159580)
# Test conditions: S. cerevisiae deletion strains, growth OD, locus YGL227W, strain vid30, active compounds read low
Screen size: about 5,500 compounds; about 2,000 (36%) were called active. About 18% were inconclusive and are not listed. The list shows a part of the results.
Measure name: normalized growth

Quick check: normalized growth of "CC1(C)S[C@@H]2[C@H](NC(=O)Cc3ccccc3)C(=O)N2[C@H]1C(=O)O" ?
1.05 (inactive)

Same question, "COc1cc(-c2oc3cc(O)ccc3c(=O)c2O)ccc1O" this time
1.04 (inactive)

Same question, "Cc1onc(-c2c(Cl)cccc2Cl)c1C(=O)N[C@@H]1C(=O)N2[C@@H]1SC(C)(C)[C@@H]2C(=O)O" this time
0.981 (inactive)

Same question, "COc1ccc([C@H]2COc3c(ccc(O)c3OC)C2)c(OC)c1O" this time
0.988 (inactive)

Same question, COc1cc2c(cc1OC)[C@@H]1C(=O)c3ccc4c(c3O[C@@H]1CO2)CC(C(C)C)O4 (some centres undefined) this time
0.975 (inactive)

Same question, CC(=O)OCC(=O)[C@@]1(O)CCC2C3CCC4=CC(=O)CC[C@]4(C)C3[C@@H](O)C[C@@]21C (some centres undefined) this time
1.01 (inactive)

Same question, "NCCNCCNCCN" this time
1 (inactive)

Same question, "CCOc1ccc(C(=O)c2ccc(O)c(O)c2O)cc1" this time
0.982 (inactive)

Same question, COc1cc2c(cc1OC)[C@@]13CCN4CC5=CCOC6CC(=O)N2C1[C@H]6[C@H]5C[C@H]43 (some centres undefined) this time
0.984 (inactive)

Same question, "COC(=O)[C@]1(C)CC[C@]2(C)CC[C@]3(C)C4=CC=C5C(=CC(=O)C(O)=C5C)[C@]4(C)CC[C@@]3(C)[C@@H]2C1" this time
0.879 (active)

Same question, "CN[C@@H]1[C@@H](O[C@H]2O[C@H](CO)[C@@H](N)[C@H](O)[C@H]2O)O[C@H]2C[C@@H](N)[C@H](O[C@H]3[C@H](O)[C@@H](O)[C@H](N)C[C@@H]3N)O[C@@H]2[C@@H]1O" this time
0.998 (inactive)

Same question, C=C(C)[C@@H]1CC[C@]2(CO)CC[C@]3(C)[C@H](CCC4[C@@]5(C)CC[C@H](O)C(C)(C)C5CC[C@]43C)C12 (some centres undefined) this time
1.02 (inactive)

Same question, CO[C@H]1C[C@H](O[C@H]2[C@H](C)[C@@H](OC3O[C@H](C)C[C@H](N(C)C)[C@H]3OC(C)=O)[C@@H](C)C[C@]3(CO3)C(=O)[C@H](C)[C@@H](OC(C)=O)[C@@H](C)[C@@H](C)OC(=O)[C@@H]2C)O[C@@H](C)[C@@H]1OC(C)=O (some centres undefined) this time
1.02 (inactive)

Same question, COC1(C)CCC2OC2(C)CCC2C1CC2(C)C (centres undefined) this time
1.01 (inactive)

====

# Method notes: chemical genetic growth profiling, strain panel (AID 1159580);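 further: tested at 20 µM; growth read once vehicle control cultures reached saturation at 30 °C; 1 = growth at the plate median or of vehicle wells; lower values mean less growth of the strain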
# Test conditions: S. cerevisiae deletion strains, growth OD, locus YOR144C, strain elg1, active compounds read low
About 2,000 (36%) of roughly 5,500 compounds were called active. Inconclusive results (about 18%) are left out. The list shows a part of the results.
What normalized growth was measured for each of the following?
// no unit, no text: just the number

Quick check: normalized growth of C[C@]12CCC(=O)C=C1CCC1C2C(=O)C[C@@]2(C)C1CC[C@]2(O)C(=O)CO (stereo not given in full) ?
1

Same question, CCCCCCCCCCCCCCCCCCOCC(O)CO (stereo not given) this time
1.01

Same question, "O=C(O)c1cc(=O)c2c(Cl)cc(Cl)cc2[nH]1" this time
1.01

Same question, CC1=CC2C(C(C)C)CCC(C)(O)C2CC1 (stereo not given) this time
0.985

Same question, "O=C(O)c1cc(=O)c2cccc(O)c2[nH]1" this time
0.99

====

# Method notes: chemical genetic growth profiling, strain panel (AID 1159580);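 further: tested at 20 µM; growth read once vehicle control cultures reached saturation at 30 °C; 1 = growth at the plate median or of vehicle wells; lower values mean less growth of the strain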
# Test conditions: S. cerevisiae deletion strains, growth OD, locus YKL067W, strain YNK1, active compounds read low
Among all 5,500 compounds or so, about 2,000 (36%) were called active. Roughly 18% stayed inconclusive and do not appear here. The list shows a part of the results.
Measure name: normalized growth

Quick check: normalized growth of "Cc1ccc2nc(-c3ccc([N+](=O)[O-])o3)oc(=O)c2c1" ?
0.138 (active)

Same question, "Clc1ccc(N/N=C\c2sccc2Oc2ccccc2)cc1" this time
0.303 (active)

Same question, "CC(C)(C)C(=O)c1sc2sc(C(=O)C(C)(C)C)c(N)c2c1N" this time
0.902 (inactive)

====

# Method notes: chemical genetic growth profiling, strain panel (AID 1159580);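 further: tested at 20 µM; growth read once vehicle control cultures reached saturation at 30 °C; 1 = growth at the plate median or of vehicle wells; lower values mean less growth of the strain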
# Test conditions: S. cerevisiae deletion strains, growth OD, locus YLL001W, strain dnm1, active compounds read low
About 2,000 (36%) of roughly 5,500 compounds were called active. Another 18% or so got no clear call; they are omitted. The list shows a part of the results.
Measure name: normalized growth
// no unit, no text: just the number

Quick check: normalized growth of "Cc1ccc(N(CC2=NCCN2)c2cccc(O)c2)cc1" ?
1

Same question, CC[C@H]1CN2CCc3cc(OC)c(OC)cc3C2C[C@@H]1CC1NCCc2cc(OC)c(OC)cc21 (stereo not given in full) this time
0.985

Same question, CO[C@H]1C[C@H](O[C@H]2[C@H](C)[C@@H](OC3O[C@H](C)C[C@H](N(C)C)[C@H]3OC(C)=O)[C@@H](C)C[C@]3(CO3)C(=O)[C@H](C)[C@@H](OC(C)=O)[C@@H](C)[C@@H](C)OC(=O)[C@@H]2C)O[C@@H](C)[C@@H]1OC(C)=O (stereo not given in full) this time
1.01

Same question, CC(=O)O[C@@H]1CC[C@]2(C)C3CC[C@]4(C)C(=O)CCC4C3CC[C@H]2C1 (stereo not given in full) this time
0.974

Same question, C1CCC(C(CC2CCCCN2)C2CCCCC2)CC1 (stereo not given) this time
0.992

Same question, OC(c1cc(C(F)(F)F)nc2c(C(F)(F)F)cccc12)C1CCCCN1 (stereo not given) this time
1

Same question, "CN[C@@H]1[C@@H](O[C@H]2O[C@H](CO)[C@@H](N)[C@H](O)[C@H]2O)O[C@H]2C[C@@H](N)[C@H](O[C@H]3[C@H](O)[C@@H](O)[C@H](N)C[C@@H]3N)O[C@@H]2[C@@H]1O" this time
1.02

Same question, "CN1CCN(CC(=O)N2c3ccccc3C(=O)Nc3cccnc32)CC1" this time
1.01

Same question, "COc1cc(/C=C/C(=O)N2CCC=CC2=O)cc(OC)c1OC" this time
1.01

Same question, "Cc1cc(C(C)(C)C)c(O)c(C)c1CC1=NCCN1" this time
1.01

# credit: PubChem BioAssay AID1159580
